This collection of values is drawn from patent US12102648B2.

experiment: in vitro; assay type: in vitro ADME; details: human; Caco-2 monolayer, apical to basolateral, 90-minute incubation; read-out: Papp, A-B
Metric: Papp A→B at 90 min (×10⁻⁶ cm/s)
Give bare numbers, in ×10⁻⁶ cm/s.

N#C[C@@]1(c2ccc3c(NC(=O)[C@@H](N)Cc4ccc(F)cc4)ncnn23)O[C@H](COC(=O)Cc2ccccc2)[C@@H](O)[C@H]1O [Compound 97]	3.8
CCCCCOC(=O)Nc1ncnn2c([C@]3(C#N)O[C@H](COC(=O)Cc4ccccc4)[C@@H](O)[C@H]3O)ccc12 [Compound 89]	2.1
CCC(=O)OC[C@H]1O[C@@H](n2cnc3c(NC)nc(N)nc32)[C@](C)(F)[C@@H]1O [Compound 180]	4.6
CCC(=O)OC[C@H]1O[C@@](C#N)(c2ccc3c(NC(=O)c4ccccc4)ncnn23)[C@H](O)[C@@H]1O [Compound 107]	2.1

Moving on to another compound below.
Query: Can you look up the measured Papp A→B at 90 min of CCCCC(=O)Nc1ncnn2c([C@]3(C#N)O[C@H](COC(=O)CC)[C@@H](O)[C@H]3O)ccc12 [Compound 282] for me?
Result: 0.72

---

experiment: in vitro; assay type: in vitro ADME; settings: human, Caco-2
Metric: Papp A→B at 90 min

Record excerpt, results attached:
N#C[C@@]1(c2ccc3c(N)ncnn23)O[C@H](COP(=O)(O)OCCCCCCCCCCCCCCCC(=O)O)[C@@H](O)[C@H]1O	0.2 ×10⁻⁶ cm/s
CCCCCOC(=O)Nc1ncnn2c([C@]3(C#N)O[C@H](COC(=O)CC4CCCCC4)[C@@H](O)[C@H]3O)ccc12	2.1 ×10⁻⁶ cm/s
CC(=O)OC[C@H]1O[C@@](C#N)(c2ccc3c(N)ncnn23)[C@H](O)[C@@H]1OCOC(=O)C(C)(C)C	4.7 ×10⁻⁶ cm/s

Parameter requested: Papp A→B at 90 min. Apply to each item below.
1. CC(C)(C)C(=O)OCOC(=O)Nc1ncnn2c([C@]3(C#N)O[C@H](COC(=O)[C@@H](N)Cc4ccccc4)[C@@H](OC(=O)CC4CCCCC4)[C@H]3O)ccc12
2. N#C[C@@]1(c2ccc3c(N)ncnn23)O[C@H](COC(=O)C2(c3ccccc3)CC2)[C@@H](O)[C@H]1O

Result:
1. 0.004 ×10⁻⁶ cm/s
2. 6.4 ×10⁻⁶ cm/s

---

Assignment: determine reported Papp B→A at 90 min for the given compounds.
assay: in vitro; assay type: in vitro ADME; details: human; Caco-2 monolayer, basolateral to apical, 90-minute incubation; read-out: Papp, B-A
Give bare numbers, in ×10⁻⁶ cm/s.

Parameter requested: Papp B→A at 90 min. Apply to each item below.
1. CCCCC(=O)Nc1ncnn2c([C@]3(C#N)O[C@H](COC(=O)CC)[C@@H](O)[C@H]3O)ccc12
2. CC(C)[C@H](N)C(=O)Nc1ncnn2c([C@]3(C#N)O[C@H](CO)[C@@H](OC(=O)Cc4ccccc4)[C@H]3O)ccc12

Result:
1: 4.1; 2: 1.8

---

assay: in vitro; type: in vitro ADME; conditions: human, Caco-2
Metric: Papp A→B at 90 min (×10⁻⁶ cm/s)
One number for each entry, in ×10⁻⁶ cm/s.

CN(C(=O)CC1CCCCC1)c1nc(N)nc2c1ncn2[C@@H]1O[C@H](COC(=O)CC2CCCCC2)[C@@H](O)[C@@]1(C)F	11

Parameter requested: Papp A→B at 90 min. Apply to each item below.
1. CCCCCCCCCCCCCCCCCCOCCOP(=O)(O)OC[C@H]1O[C@@H](n2cnc3c(NC)nc(N)nc32)[C@](C)(F)[C@@H]1O
2. CC(C)CC(=O)OC[C@H]1O[C@@](C#N)(c2ccc3c(NC(=O)[C@@H](N)C(C)C)ncnn23)[C@H](O)[C@@H]1O
3. CNc1nc(N)nc2c1ncn2[C@@H]1O[C@H](COC(C)=O)[C@@H](OC(=O)CC2CCCCC2)[C@@]1(C)F
4. N#C[C@@]1(c2ccc3c(NC(=O)[C@@H](N)Cc4ccc(F)cc4)ncnn23)O[C@H](COC(=O)CC2CCCCC2)[C@@H](O)[C@H]1O
5. CC(C)[C@H](N)C(=O)Nc1ncnn2c([C@]3(C#N)O[C@H](COC(=O)[C@@H](N)C(C)C)[C@@H](O)[C@H]3O)ccc12

Result:
2.2
0.22
12
0.45
0.02
